Target: ERR1 (also known as ERR-α or ERR-1) (Homo sapiens, UniProt P11474)
Experiment: TR-FRET assay (disruption of co-activator peptide binding)
Conditions: 6His-tagged ERR1 LBD, GST-hSRC2 co-activator polypeptide; average of 3 independent experiments
Reported EC50 values for the following compounds.
Lab book: enter the figure in µM, no units written.

Example entries and their recorded answers appear below.
compound COc1ccc(Cn2ncc3cc(/C=C4\SC(N5CCN(C)CC5)=NC4=O)ccc32)c(C(F)(F)F)c1 [Compound 21] , EC50 observed: 0.003

compound O=C1N=C(N2CCSCC2)S/C1=C\c1ccc2c(cnn2Cc2ccc(Cl)cc2C(F)(F)F)c1 [Example 148] , EC50 observed: 0.033

compound O=C1N=C(N2CC(C(=O)O)C2)S/C1=C\c1ccc2c(cnn2Cc2ccc(Cl)cc2C(F)(F)F)c1 [Example 40] , EC50 observed: 0.008

Kindly consider the entry below.
compound O=C1N=C(N2CCN[C@H](CO)C2)S/C1=C\c1ccc2c(cnn2Cc2ccc(Cl)cc2C(F)(F)F)c1 [Example 206] , EC50 observed: 0.028

* * *

Target: ERR1 (also known as ERR-α or ERR-1) (Homo sapiens, UniProt P11474)
Assay: TR-FRET assay (disruption of co-activator peptide binding)
Details: 6His-tagged ERR1 LBD, GST-hSRC2 co-activator polypeptide; average of 3 independent experiments
Parameter measured: pEC50
Scale for pEC50: -log10 of concentration given in mol/L; no unit attached.

Example entries and their recorded answers appear below.
molecule O=C1N=C(N2CCO[C@H](CO)C2)S/C1=C\c1ccc2c(cnn2Cc2ccc(Cl)cc2C(F)(F)F)c1 , pEC50 observed: 7.70

molecule COC(=O)N[C@@H]1C[C@H](CO)N(C2=NC(=O)/C(=C/c3ccc4c(cnn4Cc4ccc(C(F)(F)F)cc4C(F)(F)F)c3)S2)C1 , pEC50 observed: 7.68

molecule COCCN1CCN(C2=NC(=O)/C(=C/c3ccc4c(cnn4Cc4ccc(C(F)(F)F)cc4C(F)(F)F)c3)S2)CC1 , pEC50 observed: 7.60

molecule C[C@@H]1CN(C2CN(C3=NC(=O)/C(=C/c4ccc5c(cnn5Cc5ccc(C(F)(F)F)cc5C(F)(F)F)c4)S3)C2)C[C@H](C)O1 , pEC50 observed: 7.22

molecule O=C1N=C(N2CCOC[C@H]2CO)S/C1=C\c1ccc2c(cnn2Cc2ccc(C(F)(F)F)cc2C(F)(F)F)c1 , pEC50 observed: 7.43

molecule C=C(C)c1ccc(Cn2ncc3cc(/C=C4\SC(N5CCN[C@@H](CO)C5)=NC4=O)ccc32)c(Cl)c1 , pEC50 observed: 6.87

molecule C[C@@H]1CN(C2CN(C3=NC(=O)/C(=C/c4ccc5c(cnn5Cc5ccc(Cl)cc5C(F)(F)F)c4)S3)C2)C[C@H](C)O1 , pEC50 observed: 7.41

molecule O=C1N=C(N2CCOCC2)S/C1=C\c1ccc2c(cnn2Cc2ccc(C(F)(F)F)cc2C(F)(F)F)c1 , pEC50 observed: 7.68

More entries:
molecule Cc1nn(Cc2ccc(Cl)cc2C(F)(F)F)c2ccc(/C=C3\SC(N4CCO[C@H](CO)C4)=NC3=O)cc12 , pEC50 observed: 7.80

molecule COc1ccc(Cn2ncc3cc(/C=C4\SC(N5CCNCC5)=NC4=O)ccc32)c(C(F)(F)F)c1 , pEC50 observed: 8.12

molecule O=C1N=C(N2CCC(n3ccnc3)CC2)S/C1=C\c1ccc2c(cnn2Cc2ccc(Cl)cc2C(F)(F)F)c1 , pEC50 observed: 7.44

molecule CC(C)(O)c1ccc(Cn2ncc3cc(/C=C4\SC(N5CCN[C@@H](CO)C5)=NC4=O)ccc32)c(Cl)c1 , pEC50 observed: 6.24

molecule O=C1N=C(N2CC(F)C2)S/C1=C\c1ccc2c(cnn2Cc2ccc(Cl)cc2C(F)(F)F)c1 , pEC50 observed: 7.26

molecule O=C1N=C(N2C[C@@H](O)[C@H](O)C2)S/C1=C\c1ccc2c(cnn2Cc2ccc(Cl)cc2C(F)(F)F)c1 , pEC50 observed: 8.55

* * *

Target: ERR1 (also known as ERR-α or ERR-1) (Homo sapiens)
Test: TR-FRET assay (disruption of co-activator peptide binding)
Conditions: 6His-tagged ERR1 LBD, GST-hSRC2 co-activator polypeptide; average of 3 independent experiments
Parameter measured: pEC50
Scale for pEC50: -log10 of concentration given in mol/L; no unit attached.

Example entries and their recorded answers appear below.
molecule CN1CCN(C2=NC(=O)/C(=C/c3ccc4c(cnn4Cc4ccc(Cl)cc4C(F)(F)F)c3)S2)[C@@H](CO)C1 [Example 254] , pEC50 observed: 8.19

molecule CC(C)(C)N1CCN(C2=NC(=O)/C(=C/c3ccc4c(cnn4Cc4ccc(C(F)(F)F)cc4C(F)(F)F)c3)S2)C[C@@H]1CO [Example 207] , pEC50 observed: 7.42

Kindly consider the entry below.
molecule CN1CCN(C2=NC(=O)/C(=C/c3ccc4c(c3)c(C#N)nn4Cc3ccc(Cl)cc3C(F)(F)F)S2)CC1 [Example 223] , pEC50 observed: 7.87

* * *

Reported pEC50 values for the following compounds.
Target: ERR1 (also known as ERR-α or ERR-1) (Homo sapiens)
Assay: TR-FRET assay (disruption of co-activator peptide binding)
Conditions: 6His-tagged ERR1 LBD, GST-hSRC2 co-activator polypeptide; average of 3 independent experiments
Scale for pEC50: -log10 of concentration given in mol/L; no unit attached.

Example entries and their recorded answers appear below.
compound COC(=O)COC1CCN(C2=NC(=O)/C(=C/c3ccc4c(cnn4Cc4ccc(Cl)cc4C(F)(F)F)c3)S2)CC1 , pEC50 observed: 7.49

compound CN1C[C@H]2CC[C@@H](C1)N2C1=NC(=O)/C(=C/c2ccc3c(cnn3Cc3ccc(Cl)cc3C(F)(F)F)c2)S1 , pEC50 observed: 7.82

compound Cc1nn(Cc2ccc(C(F)(F)F)cc2C(F)(F)F)c2ccc(/C=C3\SC(N4CCN[C@@H](CO)C4)=NC3=O)cc12 , pEC50 observed: 7.97

More entries:
compound CC(C)(C)OC[C@@H]1CN(C2=NC(=O)/C(=C/c3ccc4c(cnn4Cc4ccc(C(F)(F)F)cc4C(F)(F)F)c3)S2)CCO1 , pEC50 observed: 7.25

* * *

Reported pEC50 values for the following compounds.
Target: ERR1 (also known as ERR-α or ERR-1) (Homo sapiens, UniProt P11474)
Sequence (P11474 193-421 limits assumed): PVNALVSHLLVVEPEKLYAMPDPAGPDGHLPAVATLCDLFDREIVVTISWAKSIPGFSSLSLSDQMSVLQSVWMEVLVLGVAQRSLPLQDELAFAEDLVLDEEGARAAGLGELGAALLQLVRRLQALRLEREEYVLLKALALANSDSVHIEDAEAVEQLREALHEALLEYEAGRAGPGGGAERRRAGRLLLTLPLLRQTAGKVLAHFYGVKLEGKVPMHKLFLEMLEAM
Test: TR-FRET assay (disruption of co-activator peptide binding)
Details: 6His-tagged ERR1 LBD, GST-hSRC2 co-activator polypeptide; average of 3 independent experiments
Scale for pEC50: -log10 of concentration given in mol/L; no unit attached.

Example entries and their recorded answers appear below.
compound O=C1N=C(N2CCC[C@H]2C(=O)O)S/C1=C\c1ccc2c(cnn2Cc2ccc(Cl)cc2C(F)(F)F)c1 , pEC50 observed: 8.49

compound COC[C@@H]1CN(C2=NC(=O)/C(=C/c3ccc4c(cnn4Cc4ccc(C(F)(F)F)cc4C(F)(F)F)c3)S2)CCN1 , pEC50 observed: 7.51

compound O=C1N=C(N2CCOC[C@@H]2C(=O)O)S/C1=C\c1ccc2c(cnn2Cc2ccc(Cl)cc2C(F)(F)F)c1 , pEC50 observed: 7.63

More entries:
compound CC[C@H]1CN(C2=NC(=O)/C(=C/c3ccc4c(cnn4Cc4ccc(Cl)cc4C(F)(F)F)c3)S2)CCN1 (stereo in doubt) , pEC50 observed: 8.30

compound N#Cc1nn(Cc2ccc(C(F)(F)F)cc2C(F)(F)F)c2ccc(/C=C3\SC(N4CCN[C@H](CO)C4)=NC3=O)cc12 , pEC50 observed: 7.44

compound O=C1N=C(N2CCS(=O)(=O)CC2)S/C1=C\c1ccc2c(cnn2Cc2ccc(Cl)cc2C(F)(F)F)c1 , pEC50 observed: 7.85

compound O=C1N=C(N2CCN(CCO)CC2)S/C1=C\c1ccc2c(cnn2Cc2ccc(Cl)cc2Cl)c1 , pEC50 observed: 7.17

* * *

Target: UniProt P11474
Test: TR-FRET assay (disruption of co-activator peptide binding)
Conditions: 6His-tagged ERR1 LBD, GST-hSRC2 co-activator polypeptide; average of 3 independent experiments
Parameter measured: EC50 (nM)
Lab book: enter the figure in nM, no units written.

Example entries and their recorded answers appear below.
molecule O=C1N=C(N2CCCC2)S/C1=C\c1ccc2c(cnn2Cc2ccc(Cl)cc2C(F)(F)F)c1 , EC50 observed: 27

molecule CCNC(=O)NC1CCN(C2=NC(=O)/C(=C/c3ccc4c(cnn4Cc4ccc(C(F)(F)F)cc4C(F)(F)F)c3)S2)CC1 , EC50 observed: 22

molecule CONC(=O)C1CN(C2=NC(=O)/C(=C/c3ccc4c(cnn4Cc4ccc(Cl)cc4C(F)(F)F)c3)S2)CCN1 (stereo not shown) , EC50 observed: 9

More entries:
molecule O=C1N=C(N2CCC(C(=O)O)C2)S/C1=C\c1ccc2c(cnn2Cc2ccc(Cl)cc2C(F)(F)F)c1 (stereo not shown) , EC50 observed: 14
